From: patent US20140348834A1

Listing of entries alongside the reported Potency (nM), IL-17-driven IL-6 production in HS27 cells.
Target: cynomolgous monkey (cyno) IL-17A (cynomolgus monkey, UniProt A0A2K5TTB0 24-155)
Sequence (A0A2K5TTB0 entry or part of it): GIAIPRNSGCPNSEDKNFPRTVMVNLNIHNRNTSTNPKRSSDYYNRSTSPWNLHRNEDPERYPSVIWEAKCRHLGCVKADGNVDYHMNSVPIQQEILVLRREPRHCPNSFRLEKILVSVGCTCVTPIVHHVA
Assay: cell-based or functional assay
quantityKind: Potency (nM), IL-17-driven IL-6 production in HS27 cells

# binder, measuredResult
measured = [
    ("IL17-TN-L7-A7 (antibody, V domains shown, Fully human monoclonal antibody from mRNA display) VH: EVQLLESGGGVVQPGTFLRLSCAATGFTFSAYGMHWVRQAPGRGLEWVAVTSYDGSNKYYADSVKGRFTISRDNSKNTLYLEMNSLRPEDTAVYYCAKVGASGDYYYSYGLDVWGQGTMVTVSS VL: QSGLTQPPSASGTPGQTVSISCSGSNSNIGSHSVNWYQQVPGAAPKLLMYGIGQRPSGVPDRFSVSQSGTSASLAISGLQSEDEADYYCATWDDSLGGYVFGSGTKVTVLG", 12),
    ("IL17-TN-K7-B6 (antibody, V domains shown, Fully human monoclonal antibody from mRNA display) VH: EVQLVQSGAEVKKPGESLKISCKASGGSFRSYGISWVRQAPGQGLEWMGGITPILGTANYAQKFQGRVTITADESTTTAYMELSGLTSDDTAVYYCAREPNDFWNGYYTTHHFDYWGQGTPVTVSS VL: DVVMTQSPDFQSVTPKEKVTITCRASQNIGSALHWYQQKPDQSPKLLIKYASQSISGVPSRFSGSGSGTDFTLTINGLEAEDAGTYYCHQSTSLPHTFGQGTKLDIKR", 18),
    ("IL17-TN-L7-G9 (antibody, V domains shown, Fully human monoclonal antibody from mRNA display) VH: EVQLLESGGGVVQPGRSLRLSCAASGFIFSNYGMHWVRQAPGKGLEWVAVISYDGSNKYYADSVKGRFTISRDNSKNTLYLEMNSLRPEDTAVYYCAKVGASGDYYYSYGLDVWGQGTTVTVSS VL: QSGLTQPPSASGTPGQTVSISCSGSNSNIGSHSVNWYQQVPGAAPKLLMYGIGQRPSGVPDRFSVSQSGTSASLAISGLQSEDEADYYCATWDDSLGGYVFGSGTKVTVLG", 12),
    ("IL17-TN-L7-C8 (antibody, V domains shown, Fully human monoclonal antibody from mRNA display; also called IL-TN-L7-C8) VH: EVQLVQSGAEVKKPGASVKVSCKASGYTFSDFDIDWVRQATGLGLEWMGWMNPNSGNTGVAPKFRGRVSMTFNTAIRTAYLELSSLRPDDTAVYFCARSSESEGITIGFDNWGQGTLVTVSS VL: SYELTQPPSVSVSPGQTASIPCSGDKLGNRYACWYKQKPGQPPVLVIYQDNKRPSGISERYSGSNYGDTATLTITGTQAMDEADYYCQTWDSTTGSYVFGTGTKVTVLG", 18),
]
